- target-system: T1, EsCas13d, nuclease-dead (Eubacterium siraeum, UniProt B0MS50, R295A;H300A;R849A;H854A)
- T1 sequence: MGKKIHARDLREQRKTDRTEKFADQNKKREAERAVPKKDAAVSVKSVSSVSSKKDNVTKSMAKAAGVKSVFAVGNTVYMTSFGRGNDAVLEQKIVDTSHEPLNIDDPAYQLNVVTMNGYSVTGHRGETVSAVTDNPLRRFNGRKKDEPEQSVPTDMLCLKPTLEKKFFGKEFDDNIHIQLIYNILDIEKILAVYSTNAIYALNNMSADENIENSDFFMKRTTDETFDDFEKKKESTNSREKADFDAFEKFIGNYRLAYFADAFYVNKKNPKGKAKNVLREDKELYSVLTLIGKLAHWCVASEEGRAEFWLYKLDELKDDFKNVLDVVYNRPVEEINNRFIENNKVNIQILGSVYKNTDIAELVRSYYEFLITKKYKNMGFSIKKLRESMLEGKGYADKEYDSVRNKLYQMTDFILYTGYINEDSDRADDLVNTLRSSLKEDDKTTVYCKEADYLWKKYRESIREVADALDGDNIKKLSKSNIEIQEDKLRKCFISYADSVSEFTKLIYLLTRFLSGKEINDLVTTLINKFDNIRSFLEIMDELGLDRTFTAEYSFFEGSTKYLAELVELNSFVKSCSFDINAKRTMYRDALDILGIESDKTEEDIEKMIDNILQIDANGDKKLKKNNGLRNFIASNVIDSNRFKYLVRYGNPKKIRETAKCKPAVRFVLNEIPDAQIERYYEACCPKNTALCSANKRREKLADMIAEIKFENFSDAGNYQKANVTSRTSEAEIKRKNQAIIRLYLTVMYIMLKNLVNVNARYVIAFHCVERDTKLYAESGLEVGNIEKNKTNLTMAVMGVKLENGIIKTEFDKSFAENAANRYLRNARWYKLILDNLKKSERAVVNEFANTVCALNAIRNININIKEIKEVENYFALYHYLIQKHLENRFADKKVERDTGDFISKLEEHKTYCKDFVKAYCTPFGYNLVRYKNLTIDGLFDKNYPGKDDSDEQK
- experiment-notes: crRNA (strand 1, pre-loaded); Mg2+; 40 mM Tris-HCl pH 7.5, 150 mM NaCl, 6 mM MgCl2, 1 mM DTT, 0.1% Tween-20, 0.2 mg/ml BSA; 25 C; 10 min per concentration, then washed
- assay-context: tags: His6-TwinStrep-SUMO cleaved; N-terminal SNAP kept (SNAP-Surface 488); label: 3' end held by stalled T7 RNA polymerase
Cut-off 8 nM on Kd: below means y, at or above means n.

Worked examples follow.
target 2 MT 5'PFS CAU 3'PFS CAG (mixed) RNA 1: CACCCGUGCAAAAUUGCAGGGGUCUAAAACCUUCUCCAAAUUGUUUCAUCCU RNA 2: GGGAAUGGAUCCACAUCUACGAAUUCCAUAGGAUGAAACAAUUUGGAGAAGCAGAGAUCGGAAGAGCACACGU ... y
target 2 MT 5'PFS CAG 3'PFS CAA (mixed) RNA 1: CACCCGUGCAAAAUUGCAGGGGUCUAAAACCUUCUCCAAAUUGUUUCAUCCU RNA 2: GGGAAUGGAUCCACAUCUACGAAUUCCAGAGGAUGAAACAAUUUGGAGAAGCAAAGAUCGGAAGAGCACACGU ... y
target 3 insU 3' of 4,insG 3' of 1 (mixed) RNA 1: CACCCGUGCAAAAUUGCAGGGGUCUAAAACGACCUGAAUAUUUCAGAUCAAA RNA 2: GGGAAUGGAUCCACAUCUACGAAUUCGUUUUUGAUCUGAAAUAUUCAGUGUCGUGCAGAUCGGAAGAGCACACGU ... n
target 2 MT 5'PFS GAA 3'PFS ACU (mixed) RNA 1: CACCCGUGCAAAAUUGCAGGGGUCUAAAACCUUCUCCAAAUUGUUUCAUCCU RNA 2: GGGAAUGGAUCCACAUCUACGAAUUCGAAAGGAUGAAACAAUUUGGAGAAGACUAGAUCGGAAGAGCACACGU ... n
target 2 MT 5'PFS UCU 3'PFS CAG (mixed) RNA 1: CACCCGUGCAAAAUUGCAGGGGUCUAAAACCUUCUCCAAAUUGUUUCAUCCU RNA 2: GGGAAUGGAUCCACAUCUACGAAUUCUCUAGGAUGAAACAAUUUGGAGAAGCAGAGAUCGGAAGAGCACACGU ... y

Data request: Is the reported Kd for target 2 MT 5'PFS UUU 3'PFS CAA (mixed) RNA 1: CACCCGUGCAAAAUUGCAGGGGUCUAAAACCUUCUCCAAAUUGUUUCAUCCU RNA 2: GGGAAUGGAUCCACAUCUACGAAUUCUUUAGGAUGAAACAAUUUGGAGAAGCAAAGAUCGGAAGAGCACACGU strictly below 8 nM?
Data returned: y

Every entry's value here was drawn from paper PMC10786891.
